Assignment: determine reported growth for the given compounds.
# System: U251 CNS
# assay-text: NCI-60 one-dose screen, 48 h (100 = growth as untreated, 0 = no growth, -100 = all killed)
# run-parameters: 10 µM unless noted
This is part of a sample that, as a whole, favours compounds with a hit. Of some 83,000 tested, about 20% had one in any assay.
Note: unit % is implicit; provide only the numeric part.

IN: Given "BrC1=C(Br)C(Br)(Br)C(Br)=C1Br" , respond with its growth.
OUT: 91.9

IN: Given "COc1ccc(-c2cc(-c3cc(OC)c(OC)c(OC)c3)c(C#N)c(=O)n2CCCCC(=O)O)cc1" , respond with its growth.
OUT: 91.5

IN: Given "Cc1ccccc1SSc1ccccc1C" , respond with its growth.
OUT: 87.6

IN: Given "CCOC(=O)c1nc2c3ccccc3cnn2c1C(=O)c1ccc(OC)cc1" , respond with its growth.
OUT: 89.9

IN: Given "CCOC(=O)C1=C(C)N=C2SC=C(c3ccc(F)cc3)N2[C@H]1c1cn(-c2ccccc2)nc1-c1ccc(Cl)cc1" , respond with its growth.
OUT: 88

Cited source for all entries: PubChem BioAssay (NCI)
